Biological target: T1, GST-Dvl2PDZ fusion protein (human, UniProt O14641 248-364)
T1 construct: range 248-364; Made with the pGEX E. coli expression system; also called GST-PDZ fusion protein; not shown: glutathione S-transferase (GST) encoded by plasmid pGEX
T1 sequence (looked up): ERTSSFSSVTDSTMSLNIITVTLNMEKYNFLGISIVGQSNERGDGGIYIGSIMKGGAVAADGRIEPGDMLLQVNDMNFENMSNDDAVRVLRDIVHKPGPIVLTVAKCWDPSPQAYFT
Assay: phage display selection on GST-Dvl2PDZ
recorded_metric: binding result

A selection of reference data follows.
STRHYRTWWF [SEQ ID NO 21]: binds
MVDYGWIDYWG [SEQ ID NO 112]: binds
KFLGWF [SEQ ID NO 30]: binds
TSSWKWYGWL [SEQ ID NO 8]: binds
TRFTNYGWLDGGG [SEQ ID NO 91]: binds
ITRYTFFGFF [SEQ ID NO 39]: binds
SIIYYGWLDGGG [SEQ ID NO 71]: binds

Let us move to another entry and its binding result.
For EMDLLWTDIP [SEQ ID NO 144] the binder record lists binding result as binds
